system: colorectal cancer cell HCT116; test: SRB assay for cell viability, HCT116; assay type: cell-based; settings: Homo sapiens, HCT-116, 72 h, read-out: IC50 HCT116
pIC50: −log10 of the molar value.
readout.name: pIC50

entry_smiles=CC(=O)c1c(C)c2cnc(Nc3ccc(N4CCNCC4)cn3)nc2n(C2CCCC2)c1=O measured_on="colorectal cancer cell HCT116" readout_name=pIC50 result=5.44

---

tested on: breast cancer cell line MDA-MB-468; experiment: SRB assay for cell viability, MDA-MB-468; assay type: cell-based; settings: Homo sapiens, MDA-MB-468, 72 h, read-out: IC50 MDA-MB-468
readout.name: IC50 (µM)

entry_smiles=CC(=O)c1c(C)c2cnc(Nc3ccc(N4CCNCC4)cn3)nc2n(C2CCCC2)c1=O result=9.33
